tested on: 616215-338-R-J1-PDC spheroids with HUVEC/MSC, viability; assay: Anticancer human tumor 616215-338-R-J1-PDC patient-derived colon adenocarcinoma cell line growth inhibition [PI3K]; conditions: second compound 1 µM; first compound 0.1 µM; stronger effect = lower value
measurement_name: viability, T/C (%)
The response must be a number in % with no trailing unit.

Cn1nccc1Nc1nccc(-c2ccn(C(CO)c3ccc(Cl)c(F)c3)c(=O)c2)n1 (configuration not stated) + CC(Nc1ncnc2nc[nH]c12)c1cc2cccc(Cl)c2c(=O)n1-c1ccccc1 | 98.6
Cn1ncnc1[C@H]1c2n[nH]c(=O)c3cc(F)cc(c23)N[C@@H]1c1ccc(F)cc1 + CC(Nc1ncnc2nc[nH]c12)c1cc2cccc(Cl)c2c(=O)n1-c1ccccc1 | 91.5
C[C@@H](NC(=O)c1ncnc(N)c1Cl)c1ncc(C(=O)Nc2cc(C(F)(F)F)c(Cl)cn2)s1 + CC(Nc1ncnc2nc[nH]c12)c1cc2cccc(Cl)c2c(=O)n1-c1ccccc1 | 106
CC1(C)CCC(CN2CCN(c3ccc(C(=O)NS(=O)(=O)c4ccc(NCC5CCOCC5)c([N+](=O)[O-])c4)c(Oc4cnc5[nH]ccc5c4)c3)CC2)=C(c2ccc(Cl)cc2)C1 + COc1c(OCCCN2CCOCC2)ccc2c3n(c(=NC(=O)c4cnc(N)nc4)nc12)CCN3 | 24.4
CCCS(=O)(=O)Nc1ccc(F)c(C(=O)c2c[nH]c3ncc(-c4ccc(Cl)cc4)cc23)c1F + Cc1nc(NC(=O)N2CCCC2C(N)=O)sc1-c1ccnc(C(C)(C)C(F)(F)F)c1 | 92.2
CCN1CCN(Cc2ccc(Nc3ncc(F)c(-c4cc(F)c5nc(C)n(C(C)C)c5c4)n3)nc2)CC1 + CC(Nc1ncnc2nc[nH]c12)c1cc2cccc(Cl)c2c(=O)n1-c1ccccc1 | 108

Query molecule follows.
# input What value of viability, T/C has been reported for the following molecule? Cn1ncnc1[C@H]1c2n[nH]c(=O)c3cc(F)cc(c23)N[C@@H]1c1ccc(F)cc1 + COc1c(OCCCN2CCOCC2)ccc2c3n(c(=NC(=O)c4cnc(N)nc4)nc12)CCN3
# output 22.3

* * *

tested on: 616215-338-R-J1-PDC spheroids with HUVEC/MSC, viability; assay: Anticancer human tumor 616215-338-R-J1-PDC cell line growth inhibition [PI3K]; conditions: second compound 0.0316 µM; first compound 0.1 µM; stronger effect = lower value;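 note: spheroids exposed to agents for seven days before the viability read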
measurement_name: viability, T/C (%)
The response must be a number in % with no trailing unit.

The following compounds have reported results that may help.
CC(C)NCC(C(=O)N1CCN(c2ncnc3c2C(C)CC3O)CC1)c1ccc(Cl)cc1 (stereo unspecified) + COc1c(OCCCN2CCOCC2)ccc2c3n(c(=NC(=O)c4cnc(N)nc4)nc12)CCN3 | 102
CC1(C)CCC(Nc2ncc(C(F)(F)F)c(-c3c[nH]c4c(P(C)(C)=O)c(C#N)ccc34)n2)CN1 (stereo unspecified) + CC(Nc1ncnc2nc[nH]c12)c1cc2cccc(Cl)c2c(=O)n1-c1ccccc1 | 39
CCN1CCN(Cc2ccc(Nc3ncc(F)c(-c4cc(F)c5nc(C)n(C(C)C)c5c4)n3)nc2)CC1 + Cc1nc(NC(=O)N2CCCC2C(N)=O)sc1-c1ccnc(C(C)(C)C(F)(F)F)c1 | 101

# input What value of viability, T/C has been reported for the following compound? CC(Cn1ccc(-c2ccc(C#N)c(Cl)c2)n1)NC(=O)c1cc(C(C)O)[nH]n1 (stereo unspecified) + CC(Nc1ncnc2nc[nH]c12)c1cc2cccc(Cl)c2c(=O)n1-c1ccccc1
# output 99.5

# input What value of viability, T/C has been reported for the following compound? CC1(C)CCC(Nc2ncc(C(F)(F)F)c(-c3c[nH]c4c(P(C)(C)=O)c(C#N)ccc34)n2)CN1 (stereo unspecified) + COc1c(OCCCN2CCOCC2)ccc2c3n(c(=NC(=O)c4cnc(N)nc4)nc12)CCN3
# output 33.7

# input What value of viability, T/C has been reported for the following compound? Cn1ncc(Cl)c1-c1cc(C(=O)NC(CN)Cc2cccc(F)c2)sc1Cl (stereo unspecified) + CC(Nc1ncnc2nc[nH]c12)c1cc2cccc(Cl)c2c(=O)n1-c1ccccc1
# output 87.6

# input What value of viability, T/C has been reported for the following compound? C=CC(=O)N1CCN(c2nc(=O)n(-c3c(C)ccnc3C(C)C)c3nc(-c4c(O)cccc4F)c(F)cc23)C(C)C1 (stereo unspecified) + CC(Nc1ncnc2nc[nH]c12)c1cc2cccc(Cl)c2c(=O)n1-c1ccccc1
# output 92.5

# input What value of viability, T/C has been reported for the following compound? CC(C)NCC(C(=O)N1CCN(c2ncnc3c2C(C)CC3O)CC1)c1ccc(Cl)cc1 (stereo unspecified) + Cc1nc(NC(=O)N2CCCC2C(N)=O)sc1-c1ccnc(C(C)(C)C(F)(F)F)c1
# output 91.6

# input What value of viability, T/C has been reported for the following compound? CC(C)NCC(C(=O)N1CCN(c2ncnc3c2C(C)CC3O)CC1)c1ccc(Cl)cc1 (stereo unspecified) + CC(Nc1ncnc2nc[nH]c12)c1cc2cccc(Cl)c2c(=O)n1-c1ccccc1
# output 93.4

# input What value of viability, T/C has been reported for the following compound? C#Cc1c(F)ccc2cc(O)cc(-c3ncc4c(N5CC6CCC(C5)N6)nc(OCC56CCCN5CC(F)C6)nc4c3F)c12 (stereo unspecified) + CC(Nc1ncnc2nc[nH]c12)c1cc2cccc(Cl)c2c(=O)n1-c1ccccc1
# output 93.7

# input What value of viability, T/C has been reported for the following compound? C[C@@H](NC(=O)c1ncnc(N)c1Cl)c1ncc(C(=O)Nc2cc(C(F)(F)F)c(Cl)cn2)s1 + CC(Nc1ccc2c(c1)OCCn1cc(N3C(=O)OCC3C(F)F)nc1-2)C(N)=O
# output 104

# input What value of viability, T/C has been reported for the following compound? CCCS(=O)(=O)Nc1ccc(F)c(C(=O)c2c[nH]c3ncc(-c4ccc(Cl)cc4)cc23)c1F + COc1c(OCCCN2CCOCC2)ccc2c3n(c(=NC(=O)c4cnc(N)nc4)nc12)CCN3
# output 107

# input What value of viability, T/C has been reported for the following compound? C[C@@H](NC(=O)c1ncnc(N)c1Cl)c1ncc(C(=O)Nc2cc(C(F)(F)F)c(Cl)cn2)s1 + COc1c(OCCCN2CCOCC2)ccc2c3n(c(=NC(=O)c4cnc(N)nc4)nc12)CCN3
# output 106

# input What value of viability, T/C has been reported for the following compound? CCCS(=O)(=O)Nc1ccc(F)c(C(=O)c2c[nH]c3ncc(-c4ccc(Cl)cc4)cc23)c1F + CC(Nc1ccc2c(c1)OCCn1cc(N3C(=O)OCC3C(F)F)nc1-2)C(N)=O
# output 103

# input What value of viability, T/C has been reported for the following compound? CC(=O)c1c(C)c2cnc(Nc3ccc(N4CCNCC4)cn3)nc2n(C2CCCC2)c1=O + Cc1nc(NC(=O)N2CCCC2C(N)=O)sc1-c1ccnc(C(C)(C)C(F)(F)F)c1
# output 113

# input What value of viability, T/C has been reported for the following compound? C=CC(=O)N1CCN(c2nc(=O)n(-c3c(C)ccnc3C(C)C)c3nc(-c4c(O)cccc4F)c(F)cc23)C(C)C1 (stereo unspecified) + CC(Nc1ccc2c(c1)OCCn1cc(N3C(=O)OCC3C(F)F)nc1-2)C(N)=O
# output 106

# input What value of viability, T/C has been reported for the following compound? CC1(C)CCC(Nc2ncc(C(F)(F)F)c(-c3c[nH]c4c(P(C)(C)=O)c(C#N)ccc34)n2)CN1 (stereo unspecified) + Cc1nc(NC(=O)N2CCCC2C(N)=O)sc1-c1ccnc(C(C)(C)C(F)(F)F)c1
# output 54.1

# input What value of viability, T/C has been reported for the following compound? CC(=O)c1c(C)c2cnc(Nc3ccc(N4CCNCC4)cn3)nc2n(C2CCCC2)c1=O + CC(Nc1ccc2c(c1)OCCn1cc(N3C(=O)OCC3C(F)F)nc1-2)C(N)=O
# output 107

# input What value of viability, T/C has been reported for the following compound? CCCS(=O)(=O)Nc1ccc(F)c(C(=O)c2c[nH]c3ncc(-c4ccc(Cl)cc4)cc23)c1F + Cc1nc(NC(=O)N2CCCC2C(N)=O)sc1-c1ccnc(C(C)(C)C(F)(F)F)c1
# output 94

# input What value of viability, T/C has been reported for the following compound? Cn1ncnc1[C@H]1c2n[nH]c(=O)c3cc(F)cc(c23)N[C@@H]1c1ccc(F)cc1 + CC(Nc1ncnc2nc[nH]c12)c1cc2cccc(Cl)c2c(=O)n1-c1ccccc1
# output 96.8

# input What value of viability, T/C has been reported for the following compound? Cn1nccc1Nc1nccc(-c2ccn(C(CO)c3ccc(Cl)c(F)c3)c(=O)c2)n1 (stereo unspecified) + COc1c(OCCCN2CCOCC2)ccc2c3n(c(=NC(=O)c4cnc(N)nc4)nc12)CCN3
# output 92.8
